- Protocol summary: 3OC12-HSL inactivation by CHO lysate, bioassay
- Details: glycan lost; control: wild-type PON2 Cys311
Observable: enzymatic_activity

PON2 (paraoxonase-2), Cys311 and Ser311 variants: N323A (protein) parent chain: MGRLVAVGLLGIALALLGERLLALRNRLKASREVESVDLPHCHLIKGIEAGSEDIDILPNGLAFFSVGLKFPGLHSFAPDKPGGILMMDLKEEKPRARELRISRGFDLASFNPHGISTFIDNDDTVYLFVVNHPEFKNTVEIFKFEEAENSLLHLKTVKHELLPSVNDITAVGPAHFYATNDHYFSDPFLKYLETYLNLHWANVVYYSPNEVKVVAEGFDSANGINISPDDKYIYVADILAHEIHVLEKHTNMNLTQLKVLELDTLVDNLSIDPSSGDIWVGCHPNGQKLFVYDPNNPPSSEVLRIQNILSEKPTVTTVYANNGSVLQGSSVASVYDGKLLIGTLYHRALYCEL : decreases
PON2 (paraoxonase-2), Cys311 and Ser311 variants: N254A/N323A (protein) parent chain: MGRLVAVGLLGIALALLGERLLALRNRLKASREVESVDLPHCHLIKGIEAGSEDIDILPNGLAFFSVGLKFPGLHSFAPDKPGGILMMDLKEEKPRARELRISRGFDLASFNPHGISTFIDNDDTVYLFVVNHPEFKNTVEIFKFEEAENSLLHLKTVKHELLPSVNDITAVGPAHFYATNDHYFSDPFLKYLETYLNLHWANVVYYSPNEVKVVAEGFDSANGINISPDDKYIYVADILAHEIHVLEKHTNMNLTQLKVLELDTLVDNLSIDPSSGDIWVGCHPNGQKLFVYDPNNPPSSEVLRIQNILSEKPTVTTVYANNGSVLQGSSVASVYDGKLLIGTLYHRALYCEL : decreases
PON2 (paraoxonase-2), Cys311 and Ser311 variants: N323Q (protein) parent chain: MGRLVAVGLLGIALALLGERLLALRNRLKASREVESVDLPHCHLIKGIEAGSEDIDILPNGLAFFSVGLKFPGLHSFAPDKPGGILMMDLKEEKPRARELRISRGFDLASFNPHGISTFIDNDDTVYLFVVNHPEFKNTVEIFKFEEAENSLLHLKTVKHELLPSVNDITAVGPAHFYATNDHYFSDPFLKYLETYLNLHWANVVYYSPNEVKVVAEGFDSANGINISPDDKYIYVADILAHEIHVLEKHTNMNLTQLKVLELDTLVDNLSIDPSSGDIWVGCHPNGQKLFVYDPNNPPSSEVLRIQNILSEKPTVTTVYANNGSVLQGSSVASVYDGKLLIGTLYHRALYCEL : decreases
